test system: Chordin-like protein 2 (CHRDL2); experiment: CHRDL2 small-molecule binders, primary screen, biochemical, small-molecule microarray, 635 nm fluorescence (AID 1126); details: small-molecule microarray binding, fluorescence 635 nm; higher = more signal;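 also: printed compound slides probed with Chrdl2 protein at 4 µg/mL for 1 h at 4 C; score merges 667 nm emission intensity with signal to noise over three replicate slides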
recorded-endpoint: composite z-score

[[record]]
molecular_string = "NC(=O)[C@H]1[C@@H]2C(=O)O[C@@H](c3ccccc3)[C@@H](c3ccccc3)N2[C@@H](c2ccc(O)cc2)[C@]12C(=O)Nc1ccccc12"
reported_result = -1.22

[[record]]
molecular_string = "CCOC(=O)C1=CC[C@@H](c2ccccc2)N(S(=O)(=O)c2ccc(C)cc2)[C@H]1C=Cc1ccccc1"
reported_result = -0.19

[[record]]
molecular_string = "C=C(C(=O)CC[C@@H](OC(=O)c1ccccc1-c1ccccc1C(=O)O)c1ccccc1OCCO)C(C)C"
reported_result = 0.935

[[record]]
molecular_string = "CC(=O)NCCCC[C@@H]1NC(=O)[C@H]2C[C@@H](C(=O)NCCCCCNC(=O)CS)[C@@H](c3cccc(OCCO)c3)N2C1=O"
reported_result = 0.715


----------
test: basal 3T3-L1 adipocyte mitochondrial potential changes, profiling panel, cell-based, JC-1 fluorescence, 3T3-L1 adipocytes, 24 h, 100 nL compound (AID 1168); settings: JC-1 mitochondrial fluorescence, higher = more signal, called active from +8 up or from −8 down; also: test concentration not given here
The source made the active and inactive calls.
The following compounds are listed with their measured z-score values.
recorded-endpoint: z-score

[[record]]
compound = "O=C1C[C@@](C(=O)NCc2ccccc2)(c2ccc([N+](=O)[O-])cc2)[C@@H](c2ccc(CO)cc2I)N1CC12CC3CC(CC(C3)C1)C2"
reported_result = "-0.473 (inactive)"

[[record]]
compound = "C=CC[C@H](OC(=O)Nc1ccc(SC)cc1)c1ccc(OCCO)cc1"
reported_result = "-0.313 (inactive)"

[[record]]
compound = "COCCOC(=O)N1C(=O)[C@@]2(c3cc(C#CCNC(N)=O)ccc31)[C@H](c1ccc(OCCO)cc1)N1[C@H](c3ccccc3)[C@H](c3ccccc3)OC(=O)[C@H]1[C@@H]2C(=O)NC[C@H](O)c1ccccc1"
reported_result = "0.17 (inactive)"

[[record]]
compound = "COc1cc2c(cc1OC)CN(C(=O)[C@@H]1[C@H]3C(=O)O[C@H](c4ccccc4)[C@H](c4ccccc4)N3[C@H](c3ccc(O)cc3)[C@@]13C(=O)Nc1ccc(C#CCCO)cc13)CC2"
reported_result = "0.0304 (inactive)"

[[record]]
compound = "C=C(COC)/C(=C/C[C@H](OC(C)=O)c1cccc(OCCO)c1)c1cnc2ccccc2c1"
reported_result = "-0.437 (inactive)"

[[record]]
compound = "C[C@]1(C(=O)O)c2ccccc2C(=O)N(Cc2ccc(OC(F)(F)F)cc2)[C@H]1c1ccc(CO)cc1"
reported_result = "-1.18 (inactive)"

[[record]]
compound = "CC(C)=CCCC(C)=CC(O)C1C=CC2C(=O)N(c3ccccc3)C(=O)C2N1Nc1ccccc1F (configuration not stated)"
reported_result = "-0.507 (inactive)"

[[record]]
compound = "COCCOC(=O)N1C(=O)[C@@]2(c3cc(C#CCNC(N)=O)ccc31)[C@H](c1ccc(O)cc1)N1[C@H](c3ccccc3)[C@H](c3ccccc3)OC(=O)[C@H]1[C@@H]2C(N)=O"
reported_result = "-0.0574 (inactive)"

[[record]]
compound = "CCOC(=O)C=Cc1cc(F)ccc1O"
reported_result = "-0.966 (inactive)"

[[record]]
compound = "CCCCCN1CC=CC23O[C@@H]4/C=C\\CCC(C)OC(=O)C4[C@H]2C(=O)N(CCCCCCO)[C@@H]3C1=O (some centres not stated)"
reported_result = "0.785 (inactive)"

[[record]]
compound = "CN1C(=O)C2C=CC(C(O)c3cc(C(F)(F)F)cc(C(F)(F)F)c3)N(Nc3ccccc3)C2C1=O (configuration not stated)"
reported_result = "-0.551 (inactive)"

[[record]]
compound = "C=C(COC)/C(=C/C[C@@H](OC(C)=O)c1ccc(CO)o1)c1cc(C(=O)OC)ccc1OC"
reported_result = "0.208 (inactive)"

[[record]]
compound = "CC(C)[Si]1(C(C)C)OCc2cc(-c3ccc(-c4ccc(Cl)c(Cl)c4)o3)nc(CCc3ccccc3)c21"
reported_result = "0.945 (inactive)"

[[record]]
compound = "Cc1cccc([C@H]2C[C@H]3C(Br)=C[C@@H]2C(=O)[C@]32CO2)c1"
reported_result = "0.404 (inactive)"

[[record]]
compound = "O=C1OCC=C[C@H]2OC34C=CCN(c5ccc6ccccc6c5)C(=O)[C@H]3N(CCCCCO)C(=O)[C@@H]4[C@@H]12 (some centres not stated)"
reported_result = "-0.436 (inactive)"

[[record]]
compound = "O=c1cccc(-c2ccco2)o1"
reported_result = "1.1 (inactive)"

[[record]]
compound = "O=C1OCCC/C=C\\[C@H]2OC34C=CCN(c5ccc6ccccc6c5)C(=O)[C@H]3N(CCCO)C(=O)[C@@H]4C12 (some centres not stated)"
reported_result = "-0.41 (inactive)"

[[record]]
compound = "COCCOC(=O)N1C(=O)[C@@]2(c3cc(C#CCCO)ccc31)[C@H](C(N)=O)[C@H]1C(=O)O[C@H](c3ccccc3)[C@H](c3ccccc3)N1[C@@H]2c1ccc(OCCO)cc1"
reported_result = "0.959 (inactive)"

[[record]]
compound = "C=C[C@@H](OC)[C@H](OC(=O)Nc1ccc(OC)cc1)c1ccc(OC)c(O)c1"
reported_result = "0.141 (inactive)"

[[record]]
compound = "CCN(CC)c1ccc(N2CC=CC34O[C@@H]5/C=C\\CCC(C)OC(=O)C5[C@H]3C(=O)N(C(C)CO)[C@@H]4C2=O)cc1 (some centres not stated)"
reported_result = "0.0645 (inactive)"

[[record]]
compound = "COc1ccc(CCNC(=O)[C@@]2(Cc3ccccc3I)c3ccccc3C(=O)N(Cc3ccccc3Cl)[C@H]2c2ccc(CO)cc2)cc1"
reported_result = "0.119 (inactive)"

[[record]]
compound = "CN(C)CCCCNC(=O)[C@H]1C[C@H]2C(=O)N[C@@H](CCCC[N+](C)(C)C)C(=O)N2[C@H]1c1ccc(O)cc1"
reported_result = "-0.763 (inactive)"


Data origin, for the record: PubChem BioAssay
